biological target: human EP4 (hEP4) receptor (Homo sapiens, UniProt P35408); test: In vitro human EP4 functional antagonist activity using BRET biosensors (cAMP EPAC biosensor, TCS2510 stimulation); conditions: antagonist activity vs EC60 TCS2510, hEP4 in HEK-293 T cells
Sequence (P35408 whole entry): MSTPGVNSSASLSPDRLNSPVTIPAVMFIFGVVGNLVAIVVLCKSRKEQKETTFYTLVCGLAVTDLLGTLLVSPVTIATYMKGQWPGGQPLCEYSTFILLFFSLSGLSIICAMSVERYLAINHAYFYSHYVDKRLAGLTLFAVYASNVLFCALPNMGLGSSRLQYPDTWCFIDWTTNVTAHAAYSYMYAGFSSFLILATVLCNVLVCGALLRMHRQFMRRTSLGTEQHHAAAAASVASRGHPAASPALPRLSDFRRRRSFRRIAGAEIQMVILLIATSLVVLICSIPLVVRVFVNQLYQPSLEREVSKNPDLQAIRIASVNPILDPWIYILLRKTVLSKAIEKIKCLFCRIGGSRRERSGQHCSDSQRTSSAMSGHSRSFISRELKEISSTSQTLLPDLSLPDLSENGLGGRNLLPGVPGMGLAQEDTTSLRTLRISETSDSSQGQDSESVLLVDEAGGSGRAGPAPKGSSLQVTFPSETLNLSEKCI
Counter-ions that a name gives are not always drawn.
parameterMeasured: IC50

Example results:
[
  {
    "compound": "CN(CCOc1cccc(OC(F)(F)F)c1)C1(C(=O)NC2(c3ccc(C(=O)O)cc3)CC2)CCOCC1 [Example 43, hydrochloride]",
    "IC50": "< 100 nM"
  },
  {
    "compound": "CN(CCOc1ccccc1)C1(C(=O)NC2(c3ccc(C(=O)O)c(F)c3)CC2)CCOCC1 [Example 49, hydrochloride]",
    "IC50": "< 1000 nM"
  },
  {
    "compound": "C[C@H](NC(=O)C1(N2CC[C@@H](Oc3cccc(Cl)c3)C2)CCC1)c1ccc(C(=O)O)cc1 [Example 159, hydrochloride]",
    "IC50": "< 100 nM"
  },
  {
    "compound": "CN(CCOc1ccccc1)C1(C(=O)NC2(c3ccc(C(=O)O)cc3Cl)CC2)CCOCC1 [Example 52, hydrochloride]",
    "IC50": "< 100 nM"
  },
  {
    "compound": "C[C@H](NC(=O)C1(NCC2CCCCC2)CCOCC1)c1ccc(C(=O)O)cc1 [Example 21, hydrochloride]",
    "IC50": "< 1000 nM"
  },
  {
    "compound": "C[C@H](NC(=O)C1(N2CC[C@@H](Oc3cccc(C(F)(F)F)c3)C2)CCOCC1)c1cccnc1 [Example 185, hydrochloride]",
    "IC50": "< 1000 nM"
  }
]

Let us examine a further case.
Incoming: State its IC50: C[C@H](NC(=O)C(C)(C)N1CC[C@@H](Oc2cccc(C(F)(F)F)c2)C1)c1ccc(C(N)=O)cc1 [Example 173, hydrochloride]
Outgoing: < 100 nM

----------
target: human EP4 (hEP4) receptor (Homo sapiens, UniProt P35408); test: In vitro human EP4 functional antagonist activity using BRET biosensors (cAMP EPAC biosensor, TCS2510 stimulation); details: antagonist activity vs EC60 TCS2510, hEP4 in HEK-293 T cells
pIC50: −log10 of the molar value. Counter-ions that a name gives are not always drawn.
For each entry below, report its pIC50 value.

// known answers, use as guide
[
  {
    "molecule": "C[C@H](NC(=O)C1(c2ccc(OCCC3CCCCC3)nc2)CCOCC1)c1ccc(C(=O)O)cc1",
    "reportedValue": "> 6.00"
  },
  {
    "molecule": "C[C@H](NC(=O)C1(c2ccnc(OCC3CCCCC3)c2)CCOCC1)c1ccc(C(=O)O)cc1",
    "reportedValue": "> 6.00"
  },
  {
    "molecule": "C[C@H](NC(=O)C1(NCCOc2ccc(Cl)c(Cl)c2)CCOCC1)c1ccc(C(=O)O)cc1 [Example 17, hydrochloride]",
    "reportedValue": "> 6.00"
  },
  {
    "molecule": "CC(C)(C(=O)NC[C@H]1CC[C@H](C(=O)O)CC1)N1CC[C@@H](Oc2cccc(C(F)(F)F)c2)C1 [Example 201, hydrochloride]",
    "reportedValue": "> 7.00"
  }
]

Give me pIC50 for each of these molecules, listed below.
1. CN(CCOc1ccc(OC(F)(F)F)cc1)C1(C(=O)NC2(c3ccc(C(=O)O)cc3)CC2)CCOCC1 [Example 45, hydrochloride]
2. CN(CCOc1cccc(C(F)(F)F)c1)C1(C(=O)NC2(c3ccc(C(=O)O)cc3)CC2)CCOCC1 [Example 41, hydrochloride]
3. C[C@H](NC(=O)C1(c2ccc(OCC3CCCCC3)nc2)CCCC1)c1ccc(C(=O)O)cc1

Outgoing:
1. > 6.00
2. > 7.00
3. > 7.00

----------
Assignment: determine reported pIC50 for the given compounds.
molecular target: human EP4 (hEP4) receptor (Homo sapiens, UniProt P35408); assay: In vitro human EP4 functional antagonist activity using BRET biosensors (cAMP EPAC biosensor, TCS2510 stimulation); settings: antagonist activity vs EC60 TCS2510, hEP4 in HEK-293 T cells
pIC50: −log10 of the molar value. Where a name gives a salt, the structure may show the parent alone.

Study these solved cases before continuing.
[
  {
    "compound": "C[C@H](NC(=O)C1(c2ccc(OCC3CCCCC3)cc2)CCOCC1)c1ccc(C(=O)O)cc1",
    "pIC50": "> 6.00"
  },
  {
    "compound": "C[C@H](NC(=O)C1(N(C)CCOc2ccccc2)CCCC1)c1ccc(C(=O)O)cc1 [Example 62, hydrochloride]",
    "pIC50": "> 7.00"
  },
  {
    "compound": "C[C@H](NC(=O)C1(c2ccc(OCCC3CCCCC3)cc2)CCCC1)c1ccc(C(=O)O)cc1",
    "pIC50": "> 7.00"
  },
  {
    "compound": "C[C@H](NC(=O)C1(CCCOc2ccccc2)CCOCC1)c1ccc(C(=O)O)cc1",
    "pIC50": "> 7.00"
  },
  {
    "compound": "O=C(O)c1ccc(C2(NC(=O)C3(NCCOc4ccccc4)CCOCC3)CC2)cc1 [Example 24, hydrochloride]",
    "pIC50": "> 6.00"
  },
  {
    "compound": "C[C@H](NC(=O)C1(NCCCc2ccccc2)CCOCC1)c1ccc(C(=O)O)cc1 [Example 18, hydrochloride]",
    "pIC50": "> 6.00"
  }
]

# evaluate next
Incoming: Please indicate pIC50 recorded for C[C@H](NC(=O)C1(c2ccc(OCc3ccccc3)cc2)CCOCC1)c1ccc(C(=O)O)cc1
Outgoing: > 6.00

----------
Molecular target: human EP4 (hEP4) receptor (Homo sapiens, UniProt P35408)
Assay: In vitro human EP4 functional antagonist activity using BRET biosensors (cAMP EPAC biosensor, TCS2510 stimulation)
Conditions: antagonist activity vs EC60 TCS2510, hEP4 in HEK-293 T cells
Method: Examples of the present invention were tested successively for their agonist and antagonist activities on human EP4 (hEP4) receptor transiently over-expressed in HEK-293 T cells. […] BRET assay: Receptor activity is detected by changes in BRET signal. […] Compounds and luciferase substrate are added to the cells using an automated device (Freedom Evo®, Tecan) and BRET readings are collected on EnVision (PerkinElmer) with specific filters (410 nm BW 80 nm, 515 nm BW 30 nm). […]
Structures can show the parent of a compound that is named as a salt.
Please respond with reported IC50 for every item in the list.

[
  {
    "compound": "Cc1cccc(OCCNC2(C(=O)N[C@@H](C)c3ccc(C(=O)O)cc3)CCOCC2)c1 [Example 14, hydrochloride]",
    "IC50": "< 100 nM"
  }
]

Parameters: items (list). Returns: IC50 for each item.
1. CN(CCOc1cccc(F)c1)C1(C(=O)NC2(c3ccc(C(=O)O)cc3)CC2)CCOCC1 [Example 32, hydrochloride]
2. O=C(O)c1ccc(C2(NC(=O)C3(N4CC[C@@H](Oc5cccc(Cl)c5)C4)CCOCC3)CC2)cc1 [Example 141, hydrochloride]
3. O=C(O)c1ccc(C2(NC(=O)C3(N4CC[C@@H](Oc5cccc(C(F)(F)F)c5)C4)CCOCC3)CC2)cc1 [Example 145, hydrochloride]

Outgoing:
1. < 100 nM
2. < 100 nM
3. < 100 nM

----------
molecular target: human EP4 (hEP4) receptor (Homo sapiens, UniProt P35408); test: In vitro human EP4 functional antagonist activity using BRET biosensors (cAMP EPAC biosensor, TCS2510 stimulation); settings: antagonist activity vs EC60 TCS2510, hEP4 in HEK-293 T cells
Counter-ions that a name gives are not always drawn.
parameterMeasured: IC50

[
  {
    "compound": "C[C@H](NC(=O)C1(N(C)CCOc2ccccc2)CCOCC1)c1ccc(C(=O)N(C)C)cc1 [Example 5]",
    "IC50": "< 1000 nM"
  }
]

Please go through the list and note IC50 for each compound.
1. C[C@H](NC(=O)C1(c2cccc(OCC3CCOCC3)c2)CCOCC1)c1ccc(C(=O)O)cc1 [Example 98]
2. C[C@H](NC(=O)C(C)(C)N1CC[C@@H](Oc2cccc(C(F)(F)F)c2)C1)c1ccc(S(C)(=O)=O)cc1 [Example 204, hydrochloride]
3. COc1ccccc1[C@H](C)NC(=O)C1(N2CC[C@@H](Oc3cccc(C(F)(F)F)c3)C2)CCOCC1 [Example 197, hydrochloride]
4. CN(CCOc1ccccc1)C1(C(=O)NC2(c3ccc(C(=O)O)cc3F)CC2)CCOCC1 [Example 50, hydrochloride]
5. C[C@H](NC(=O)C1(c2cccc(OCC3CCCC3)c2)CCOCC1)c1ccc(C(=O)O)cc1 [Example 102]
6. CN(CCOc1cccc(Cl)c1)C1(C(=O)NC2(c3ccc(C(=O)O)cc3)CC2)CCOC1 (centres unmarked) [Example 77, hydrochloride]

Outgoing:
1. < 1000 nM
2. < 1000 nM
3. < 1000 nM
4. < 100 nM
5. < 1000 nM
6. < 100 nM

Kindly give each listed record's IC50.
1. Cc1cccc(O[C@@H]2CCN(C3(C(=O)N[C@@H](C)c4ccc(C(=O)O)cc4)CCOCC3)C2)c1 [Example 150, hydrochloride]
2. C[C@H](NC(=O)C1(N(C)CCOc2cccc(Cl)c2)CCCCC1)c1ccc(C(=O)O)cc1 [Example 57, hydrochloride]
3. O=C(O)c1ccc(C2(NC(=O)C3(N4CC[C@@H](Oc5cccc(OC(F)(F)F)c5)C4)CCOCC3)CC2)cc1 [Example 147, hydrochloride]
4. CN(CCOc1ccccc1)C1(C(=O)NC2(c3ccc(C(=O)O)c(Cl)c3)CC2)CCOCC1 [Example 51, hydrochloride]
5. CN(CCOc1ccccc1)C1(C(=O)NC2(c3ccc(C(=O)O)cc3)CC2)CCOCC1.Cl [Example 25, hydrochloride]
6. Cc1cccc(O[C@@H]2CCN(C3(C(=O)NC4(c5ccc(C(=O)O)cc5)CC4)CCOCC3)C2)c1 [Example 151, hydrochloride]
7. CN(CCOc1ccc(F)cc1)C1(C(=O)NC2(c3ccc(C(=O)O)cc3)CC2)CCOCC1 [Example 34, hydrochloride]

Outgoing:
1. < 100 nM
2. < 100 nM
3. < 100 nM
4. < 1000 nM
5. < 100 nM
6. < 100 nM
7. < 100 nM
